Target: P. falciparum apicoplast DNA polymerase (Pf-apPOL) (Plasmodium falciparum)
Sequence (Q8ILY1 entry or part of it): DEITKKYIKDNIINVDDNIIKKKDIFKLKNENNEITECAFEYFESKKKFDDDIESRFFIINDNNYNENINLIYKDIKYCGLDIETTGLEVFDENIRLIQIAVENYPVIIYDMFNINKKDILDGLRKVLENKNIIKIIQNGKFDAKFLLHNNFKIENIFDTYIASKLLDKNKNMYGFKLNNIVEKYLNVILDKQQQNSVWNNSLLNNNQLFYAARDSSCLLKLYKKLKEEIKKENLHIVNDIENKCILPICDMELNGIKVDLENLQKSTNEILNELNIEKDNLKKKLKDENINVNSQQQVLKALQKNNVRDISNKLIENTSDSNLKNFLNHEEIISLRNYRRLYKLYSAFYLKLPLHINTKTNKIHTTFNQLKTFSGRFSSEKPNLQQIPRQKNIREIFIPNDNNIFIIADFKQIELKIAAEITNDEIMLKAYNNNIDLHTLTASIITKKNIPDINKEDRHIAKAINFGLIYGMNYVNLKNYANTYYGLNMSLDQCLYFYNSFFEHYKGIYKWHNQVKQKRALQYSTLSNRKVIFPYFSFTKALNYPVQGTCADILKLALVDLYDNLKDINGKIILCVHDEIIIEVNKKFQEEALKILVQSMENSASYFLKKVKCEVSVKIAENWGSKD
Experiment: Fluorescence-based high-throughput DNA polymerase assay (molecular beacon), primary screen and dose-response;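 also: test concentration in µM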
Type: biochemical
Settings: DRC-2; 90'; concentration 20

# molecule, % inhibition ApPOL 90', %
rows = [
    ("COc1ccc(C(=O)N2CCc3c(nc4cc(-c5ccccc5Cl)[nH]n4c3=O)C2)cn1", 56),
    ("O=[N+]([O-])c1ccc(/C=C/c2ccc3ccccc3n2)o1", 67),
    ("O=c1cc(-c2ccccc2Cl)oc2c(NS(=O)(=O)c3cc(Cl)cc(Cl)c3O)ccc(O)c12", 9),
    ("Cc1cc2[nH]c(C(=O)Nc3ccc(F)cc3)c(CN3CCOCC3)c2s1", 38),
    ("Cc1ccc(-n2nnc(C(=O)O)c2-c2ccccn2)c(F)c1", 39),
    ("O=C1c2ccccc2C(=O)N1Oc1ccc([N+](=O)[O-])c([N+](=O)[O-])c1", 36),
    ("N#CC(=NNc1cc(C(F)(F)F)cc(C(F)(F)F)c1)C(=O)c1ccco1", 59),
    ("COc1cccc(C(=O)N2CCc3c(nc4cc(-c5ccccc5)[nH]n4c3=O)C2)c1OC", 61),
    ("NS(=O)(=O)c1ccc(NC(=O)c2ccc(N3C(=O)CCC3=O)cc2)cc1", 42),
    ("O=C(Cn1ccc2c(=O)[nH]ccc21)Nc1ccc(Cl)cc1 [Molecule 36, O=C(Cn1ccc2c1cc[nH]c2=O)Nc1ccc(cc1)Cl]", 66),
    ("CC1(C)CC(=O)C2=C(C1)OC1=C(C(=O)CC(C)(C)C1)C2c1ccc(O)cc1", 34),
    ("O=C(O)c1ccc(-c2nc3cc(-c4ccc5nc(-c6ccc(C(=O)O)cc6)[nH]c5c4)ccc3[nH]2)cc1", 40),
    ("O=C(NNC(=O)c1ccc(Cl)cc1)C(=O)NNC(=O)c1ccc(Cl)cc1", 54),
    ("O=[N+]([O-])/C=C/c1ccc(-c2ccc(Br)cc2)o1", 56),
    ("O=C(Nc1cccc(Cl)c1)Nc1nnc(-c2ccncc2)s1", 67),
    ("O=C(O)c1cccc(N2N=C(C(F)(F)F)/C(=C/c3ccc(-c4ccccc4[N+](=O)[O-])o3)C2=O)c1", 65),
]
